Entry source: the supplement of paper PMC6555819

Test system: RXRa homodimer (NR concentration 180 nM)
Assay: PBM binding z-score (relative to random genomic background probes); higher = stronger binding; sequences stand for … in GC…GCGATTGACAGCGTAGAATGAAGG
# cutoff 1 applies to PBM binding z-score; >= gives met, < gives not met

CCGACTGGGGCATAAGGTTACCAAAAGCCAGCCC; met

Ask | Item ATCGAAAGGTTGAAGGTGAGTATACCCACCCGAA with PBM binding z-score of 1 or above?
Reply | met

* * *

System: PXR homodimer (NR concentration 270 nM)
Assay: PBM binding z-score (relative to random genomic background probes); higher = stronger binding; sequences stand for … in GC…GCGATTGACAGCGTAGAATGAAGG
# cutoff 2 applies to PBM binding z-score; >= gives true, < gives false

Worked set:
GCGACGGGGGCATCAGCAGGTTACCATAACTTAA; false
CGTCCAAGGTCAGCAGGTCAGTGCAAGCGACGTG; false
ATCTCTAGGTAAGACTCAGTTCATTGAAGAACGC; true
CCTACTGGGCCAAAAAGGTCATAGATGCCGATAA; false
CCGAGTAGGTTATGGGGCATTCTGGCAACGGTGA; false
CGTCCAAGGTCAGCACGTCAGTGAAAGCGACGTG; false
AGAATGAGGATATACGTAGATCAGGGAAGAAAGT; false
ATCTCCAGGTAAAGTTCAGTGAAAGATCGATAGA; true
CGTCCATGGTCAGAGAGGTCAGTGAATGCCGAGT; false
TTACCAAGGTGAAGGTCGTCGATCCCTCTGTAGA; false

Ask | Item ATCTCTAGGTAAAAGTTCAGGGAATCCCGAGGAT with PBM binding z-score of 2 or above?
Reply | false

Ask | Item TCAGAGAGGTGAAGGTAACTCAGGTACGCAGTCG with PBM binding z-score of 2 or above?
Reply | false

* * *

Tested on: PPARg:RXRa IVT, anti-PPARg (NR concentration 270 nM, RXRa partner concentration 90 nM)
Test: PBM binding z-score (relative to random genomic background probes); higher = stronger binding; sequences stand for … in GC…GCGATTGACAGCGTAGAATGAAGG
Recorded PBM binding z-score split into classes one: < 1; two: ≥ 1 and < 3; three: ≥ 3

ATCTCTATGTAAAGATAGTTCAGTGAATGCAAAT; one
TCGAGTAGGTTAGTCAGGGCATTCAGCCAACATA; two
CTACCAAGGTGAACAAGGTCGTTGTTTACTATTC; two

Ask | Which category fits this record: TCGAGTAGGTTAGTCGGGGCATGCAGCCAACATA
Reply | two

Ask | Which category fits this record: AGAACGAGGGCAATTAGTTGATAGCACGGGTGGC
Reply | two

Ask | Which category fits this record: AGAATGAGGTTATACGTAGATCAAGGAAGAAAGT
Reply | two

Ask | Which category fits this record: TCTTGTAGATCAACCGGAGGTTAAGAAAGATCGA
Reply | one

Ask | Which category fits this record: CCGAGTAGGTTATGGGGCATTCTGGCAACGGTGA
Reply | three

Ask | Which category fits this record: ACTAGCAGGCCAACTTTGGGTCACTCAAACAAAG
Reply | two

Ask | Which category fits this record: GCTCGGAGGACAAGGTCAGCGCTTTGTCCGTAGA
Reply | two

Ask | Which category fits this record: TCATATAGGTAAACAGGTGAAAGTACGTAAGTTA
Reply | three

* * *

Consider the following sequences and their measured PBM binding z-score readings.
Tested on: VDR homodimer (NR concentration 270 nM)
Assay: PBM binding z-score (relative to random genomic background probes); higher = stronger binding; sequences stand for … in GC…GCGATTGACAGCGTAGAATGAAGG
Answer field: number only, no words.

Before answering, review these 5 worked examples.
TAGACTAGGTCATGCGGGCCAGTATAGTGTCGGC; 0.756
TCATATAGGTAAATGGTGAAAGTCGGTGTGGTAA; 0.415
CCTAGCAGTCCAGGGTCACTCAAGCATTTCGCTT; 1.7
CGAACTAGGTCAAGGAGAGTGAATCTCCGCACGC; -0.00315
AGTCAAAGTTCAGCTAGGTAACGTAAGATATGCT; 2.26

The value of PBM binding z-score measured for the sequence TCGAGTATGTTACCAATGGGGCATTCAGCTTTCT turned out to be -0.375

The value of PBM binding z-score measured for the sequence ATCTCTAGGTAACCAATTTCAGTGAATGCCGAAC turned out to be 0.312

* * *

Consider the following sequences and their measured PBM binding z-score readings.
Test system: RARb homodimer (NR concentration 270 nM)
Experiment: PBM binding z-score (relative to random genomic background probes); higher = stronger binding; sequences stand for … in GC…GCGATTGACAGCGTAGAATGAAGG
Answer field: number only, no words.

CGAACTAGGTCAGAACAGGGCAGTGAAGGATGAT; 2.52
TCTCGGAGGACACGAAAGCTCAGAGCTCGACATC; 0.352
TGAATGAGGTTAGAAGATCAGGGAACGTTGCAAA; 0.0495
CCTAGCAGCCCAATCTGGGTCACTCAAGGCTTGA; 1.77
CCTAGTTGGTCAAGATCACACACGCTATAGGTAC; 0.785
GCTTGTAGATCAATGTTAAGAAAGACTAAGCTAA; -0.892
CCAACTGGGGCAGAAAGGTTACCATACCATCCGG; 2.5
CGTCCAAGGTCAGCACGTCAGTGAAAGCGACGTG; 4

The value of PBM binding z-score measured for the sequence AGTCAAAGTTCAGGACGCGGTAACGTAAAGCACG turned out to be 3.04

The value of PBM binding z-score measured for the sequence TCATATAGATAAACAGGTGAAAGTCCGTAAGTTA turned out to be 0.615

The value of PBM binding z-score measured for the sequence CCTCGGAGGACAGAAGGTCATAGCTGTCCGCTTT turned out to be 3.97

The value of PBM binding z-score measured for the sequence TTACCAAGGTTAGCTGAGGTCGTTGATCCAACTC turned out to be 2.06

* * *

Tested on: PPARg:RXRa (NR concentration 180 nM, RXRa partner concentration 90 nM)
Test: PBM binding z-score (relative to random genomic background probes); higher = stronger binding; sequences stand for … in GC…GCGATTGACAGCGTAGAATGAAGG
Consider the following sequences and their measured PBM binding z-score readings.

Before answering, review these 4 worked examples.
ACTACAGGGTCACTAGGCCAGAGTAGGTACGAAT; 7.54
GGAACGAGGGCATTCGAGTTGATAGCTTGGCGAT; 0.667
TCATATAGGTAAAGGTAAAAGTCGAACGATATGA; 2.75
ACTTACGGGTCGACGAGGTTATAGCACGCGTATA; 1.52

Next sequence, please.
PBM binding z-score on PPARg:RXRa (NR concentration 180 nM, RXRa partner concentration 90 nM) for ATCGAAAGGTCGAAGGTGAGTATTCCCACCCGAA is 4.28

* * *

Tested on: LXRb homodimer (NR concentration 270 nM)
Assay: PBM binding z-score (relative to random genomic background probes); higher = stronger binding; sequences stand for … in GC…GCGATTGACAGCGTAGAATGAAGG
Consider the following sequences and their measured PBM binding z-score readings.
Answer field: number only, no words.

Before answering, review these 5 worked examples.
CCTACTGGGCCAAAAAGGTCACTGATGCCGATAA; -0.14
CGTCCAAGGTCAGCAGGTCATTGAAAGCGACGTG; -0.214
AGAACGAGGGCACGCTGAGTTAATAGCAGAGTAG; -1.03
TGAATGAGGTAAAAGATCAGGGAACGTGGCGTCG; -0.307
TCTGCTAGGTCAGTTGGTCAGCTCACGAGCTGCC; 0.255

The value of PBM binding z-score measured for the sequence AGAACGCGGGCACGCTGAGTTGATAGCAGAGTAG turned out to be -1.1

The value of PBM binding z-score measured for the sequence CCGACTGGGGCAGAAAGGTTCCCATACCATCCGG turned out to be -1.27

* * *

Tested on: PPARg DBDmut:RXRa IVT, anti-PPARg (DBD mutation: PPARg1 K132A/R137A, NR concentration 270 nM, RXRa partner concentration 90 nM)
Assay: PBM binding z-score (relative to random genomic background probes); higher = stronger binding; sequences stand for … in GC…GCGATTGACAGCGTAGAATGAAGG
Consider the following sequences and their measured PBM binding z-score readings.
Answer field: number only, no words.

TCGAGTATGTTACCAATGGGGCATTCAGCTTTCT; -0.168
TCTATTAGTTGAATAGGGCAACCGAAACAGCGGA; 0.574
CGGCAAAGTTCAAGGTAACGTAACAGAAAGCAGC; -1.51
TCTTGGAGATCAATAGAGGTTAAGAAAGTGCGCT; 0.0631
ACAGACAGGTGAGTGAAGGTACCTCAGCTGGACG; -0.279

The value of PBM binding z-score measured for the sequence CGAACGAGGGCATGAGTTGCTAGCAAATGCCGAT turned out to be -0.188

The value of PBM binding z-score measured for the sequence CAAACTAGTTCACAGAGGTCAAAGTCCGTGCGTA turned out to be 0.945

The value of PBM binding z-score measured for the sequence CGTCATAGTTCAACTAAGGTAACGTAAAGCACGC turned out to be 0.48
